Each item that follows carries a reported Ratio ED50.
ASSAY_SYSTEM: Tubulin (Homo sapiens) (UniProt P68371+Q9H4B7+P0DPH7+P68366+Q13509+Q71U36+P04350+Q3ZCM7+P07437+P68363+Q9BQE3+Q6PEY2+Q13885+Q9BVA1+Q9BUF5)
EXPERIMENT_SUMMARY: Activity in tubulin assembly assay relative to paclitaxel
Format: functional
MEASURED_PROPERTY: Ratio ED50

[
  {
    "ENTRY_SMILES": "CCCCCC(=O)N[C@@H](c1ccccc1)[C@@H](O)C(=O)O[C@H]1C[C@@]2(O)[C@@H](OC(=O)c3ccccc3)[C@@H]3[C@]4(OC(C)=O)CO[C@@H]4C[C@H](O)[C@@]3(C)C(=O)[C@@H](OC(C)=O)C(=C1C)C2(C)C",
    "MEASURED_PROPERTY": "Ratio ED50",
    "MEASURED_RESULT": 0.21
  },
  {
    "ENTRY_SMILES": "CC(=O)O[C@@]12CO[C@@H]1C[C@H](O)[C@@]1(C)C(=O)[C@@H](O)C3=C(C)[C@@H](OC(=O)[C@H](O)[C@@H](NC(=O)c4ccccc4)c4ccccc4)C[C@@](O)([C@@H](OC(=O)c4ccccc4)[C@H]21)C3(C)C",
    "MEASURED_PROPERTY": "Ratio ED50",
    "MEASURED_RESULT": 3.2
  },
  {
    "ENTRY_SMILES": "CCCCCC(=O)N[C@@H](c1ccccc1)[C@@H](O)C(=O)O[C@H]1C[C@@]2(O)[C@@H](OC(=O)c3ccccc3)[C@@H]3[C@]4(OC(C)=O)CO[C@@H]4C[C@H](O)[C@@]3(C)C(=O)[C@H](O)C(=C1C)C2(C)C",
    "MEASURED_PROPERTY": "Ratio ED50",
    "MEASURED_RESULT": 2.2
  },
  {
    "ENTRY_SMILES": "CC(=O)O[C@@]12CO[C@@H]1C[C@H](O)[C@@]1(C)C(=O)[C@H](O)C3=C(C)[C@@H](OC(=O)[C@H](O)[C@@H](NC(=O)c4ccccc4)c4ccccc4)C[C@@](O)([C@@H](OC(=O)c4ccccc4)[C@H]21)C3(C)C",
    "MEASURED_PROPERTY": "Ratio ED50",
    "MEASURED_RESULT": 2.1
  }
]

----------
Attribute: Ratio ED50
ASSAY_SYSTEM: Tubulin (Homo sapiens) (UniProt P68371+Q9H4B7+P0DPH7+P68366+Q13509+Q71U36+P04350+Q3ZCM7+P07437+P68363+Q9BQE3+Q6PEY2+Q13885+Q9BVA1+Q9BUF5)
EXPERIMENT_SUMMARY: Cytotoxicity against human breast cancer MCF7 cell line relative to paclitaxel
Assay type: functional, cell-based
MEASURED_PROPERTY: Ratio ED50

[
  {
    "ENTRY_SMILES": "CCC(=O)O[C@@H]1C(=O)[C@@]2(C)[C@H]([C@H](OC(=O)c3ccccc3)[C@]3(O)C[C@H](OC(=O)[C@H](O)[C@@H](NC(=O)c4ccccc4)c4ccccc4)C(C)=C1C3(C)C)[C@]1(OC(C)=O)CO[C@@H]1C[C@@H]2O",
    "MEASURED_RESULT": 2.6
  },
  {
    "ENTRY_SMILES": "CCCCCC(=O)N[C@@H](c1ccccc1)[C@@H](O)C(=O)O[C@H]1C[C@@]2(O)[C@@H](OC(=O)c3ccccc3)[C@@H]3[C@]4(OC(C)=O)CO[C@@H]4C[C@H](O)[C@@]3(C)C(=O)[C@@H](O)C(=C1C)C2(C)C",
    "MEASURED_RESULT": 9.2
  },
  {
    "ENTRY_SMILES": "CCCCCC(=O)N[C@@H](c1ccccc1)[C@@H](O)C(=O)O[C@H]1C[C@@]2(O)[C@@H](OC(=O)c3ccccc3)[C@@H]3[C@]4(OC(C)=O)CO[C@@H]4C[C@H](O)[C@@]3(C)C(=O)[C@H](O)C(=C1C)C2(C)C",
    "MEASURED_RESULT": 4.8
  },
  {
    "ENTRY_SMILES": "CC(=O)O[C@@]12CO[C@@H]1C[C@H](O)[C@@]1(C)C(=O)[C@@H](O)C3=C(C)[C@@H](OC(=O)[C@H](O)[C@@H](NC(=O)c4ccccc4)c4ccccc4)C[C@@](O)([C@@H](OC(=O)c4ccccc4)[C@H]21)C3(C)C",
    "MEASURED_RESULT": 1.4
  },
  {
    "ENTRY_SMILES": "CCCCCC(=O)N[C@@H](c1ccccc1)[C@@H](O)C(=O)O[C@H]1C[C@@]2(O)[C@@H](OC(=O)c3ccccc3)[C@@H]3[C@]4(OC(C)=O)CO[C@@H]4C[C@H](O)[C@@]3(C)C(=O)[C@H](OC(C)=O)C(=C1C)C2(C)C",
    "MEASURED_RESULT": 2.2
  },
  {
    "ENTRY_SMILES": "CC(=O)O[C@@]12CO[C@@H]1C[C@H](O)[C@@]1(C)C(=O)[C@H](O)C3=C(C)[C@@H](OC(=O)[C@H](O)[C@@H](NC(=O)c4ccccc4)c4ccccc4)C[C@@](O)([C@@H](OC(=O)c4ccccc4)[C@H]21)C3(C)C",
    "MEASURED_RESULT": 7.5
  },
  {
    "ENTRY_SMILES": "CCCCCC(=O)N[C@@H](c1ccccc1)[C@@H](O)C(=O)O[C@H]1C[C@@]2(O)[C@@H](OC(=O)c3ccccc3)[C@@H]3[C@]4(OC(C)=O)CO[C@@H]4C[C@H](O)[C@@]3(C)C(=O)[C@@H](OC(C)=O)C(=C1C)C2(C)C",
    "MEASURED_RESULT": 3.2
  },
  {
    "ENTRY_SMILES": "CC(=O)O[C@@H]1C(=O)[C@@]2(C)[C@H]([C@H](OC(=O)c3ccccc3)[C@]3(O)C[C@H](OC(=O)[C@H](O)[C@@H](NC(=O)c4ccccc4)c4ccccc4)C(C)=C1C3(C)C)[C@]1(OC(C)=O)CO[C@@H]1C[C@@H]2O",
    "MEASURED_RESULT": 0.7
  },
  {
    "ENTRY_SMILES": "CCCCCC(=O)N[C@@H](c1ccccc1)[C@@H](O)C(=O)O[C@H]1C[C@@]2(O)[C@@H](OC(=O)c3ccccc3)[C@@H]3[C@]4(OC(C)=O)CO[C@@H]4C[C@H](O)[C@@]3(C)C(=O)[C@@H](OC(=O)CC)C(=C1C)C2(C)C",
    "MEASURED_RESULT": 3.8
  }
]

----------
Documented Ratio ED50 across a set of compounds
ASSAY_SYSTEM: Tubulin (Homo sapiens) (UniProt P68371+Q9H4B7+P0DPH7+P68366+Q13509+Q71U36+P04350+Q3ZCM7+P07437+P68363+Q9BQE3+Q6PEY2+Q13885+Q9BVA1+Q9BUF5)
EXPERIMENT_SUMMARY: Activity in tubulin assembly assay relative to paclitaxel
Format: functional
MEASURED_PROPERTY: Ratio ED50

[
  {
    "ENTRY_SMILES": "CC(=O)O[C@H]1C(=O)[C@@]2(C)[C@H]([C@H](OC(=O)c3ccccc3)[C@]3(O)C[C@H](OC(=O)[C@H](O)[C@@H](NC(=O)c4ccccc4)c4ccccc4)C(C)=C1C3(C)C)[C@]1(OC(C)=O)CO[C@@H]1C[C@@H]2O",
    "MEASURED_PROPERTY": "Ratio ED50",
    "MEASURED_RESULT": 1
  },
  {
    "ENTRY_SMILES": "CC(=O)O[C@@H]1C(=O)[C@@]2(C)[C@H]([C@H](OC(=O)c3ccccc3)[C@]3(O)C[C@H](OC(=O)[C@H](O)[C@@H](NC(=O)c4ccccc4)c4ccccc4)C(C)=C1C3(C)C)[C@]1(OC(C)=O)CO[C@@H]1C[C@@H]2O",
    "MEASURED_PROPERTY": "Ratio ED50",
    "MEASURED_RESULT": 0.8
  },
  {
    "ENTRY_SMILES": "CCCCCC(=O)N[C@@H](c1ccccc1)[C@@H](O)C(=O)O[C@H]1C[C@@]2(O)[C@@H](OC(=O)c3ccccc3)[C@@H]3[C@]4(OC(C)=O)CO[C@@H]4C[C@H](O)[C@@]3(C)C(=O)[C@H](OC(C)=O)C(=C1C)C2(C)C",
    "MEASURED_PROPERTY": "Ratio ED50",
    "MEASURED_RESULT": 2
  },
  {
    "ENTRY_SMILES": "CCCCCC(=O)N[C@@H](c1ccccc1)[C@@H](O)C(=O)O[C@H]1C[C@@]2(O)[C@@H](OC(=O)c3ccccc3)[C@@H]3[C@]4(OC(C)=O)CO[C@@H]4C[C@H](O)[C@@]3(C)C(=O)[C@@H](O)C(=C1C)C2(C)C",
    "MEASURED_PROPERTY": "Ratio ED50",
    "MEASURED_RESULT": 1.6
  }
]
